Measured IC50 (Prostaglandin G/H synthase 2 (Homo sapiens))

Answered cases to consult:
structure_string=COc1ccc(-c2noc(CC(=O)Nc3ccc(-c4ccc(NC(=O)Cc5onc(-c6ccc(OC)cc6)c5-c5ccc(OC)cc5)cc4)cc3)c2-c2ccc(OC)cc2)cc1 recorded_endpoint=IC50 value_measured="> 50 µM"
structure_string=COc1ccc(-c2noc(CC(=O)NCCCCCCCCCCCCNC(=O)Cc3onc(-c4ccc(OC)cc4)c3-c3ccc(OC)cc3)c2-c2ccc(OC)cc2)cc1 recorded_endpoint=IC50 value_measured="> 50 µM"

Incoming: For Prostaglandin G/H synthase 2 (Homo sapiens), provide IC50 of "COc1ccc(-c2noc(CC(=O)Nc3ccc(NC(=O)Cc4onc(-c5ccc(OC)cc5)c4-c4ccc(OC)cc4)cc3)c2-c2ccc(OC)cc2)cc1" please.
Outgoing: > 50 µM
